Hey, just so you know, these numbers are from patent US20240117062A1.

assay_target: T1, Human BCMA DTA-His (human;, UniProt Q02223 1-54; P00588 33-225)
T1 chain: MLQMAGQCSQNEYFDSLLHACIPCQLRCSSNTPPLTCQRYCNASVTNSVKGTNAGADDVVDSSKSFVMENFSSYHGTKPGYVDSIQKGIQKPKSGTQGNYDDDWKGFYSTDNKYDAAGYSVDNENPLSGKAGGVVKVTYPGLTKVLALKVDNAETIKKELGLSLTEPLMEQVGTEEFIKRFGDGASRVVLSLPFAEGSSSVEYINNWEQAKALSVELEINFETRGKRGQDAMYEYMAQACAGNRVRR
assay_details: SPR
Each entry below lists one item and its recorded pKd value.
Recall that pKd is obtained by taking minus log10 of the concentration measured in molar.

binder	pKd
CA10 Variant 3 (antibody, V domains shown) VH: QVQLVESGGGVVQPGRSLRLSCAASGFTFSNFGMHWVRQAPGRGLEWVAVIWSDETNRYYADSVKGRFTVSRDNVKSTVYLQMNSLISEDTAVYYCARDQQYCSSDSCFTWFDPWGQGTLVTVSS VL: QTVVTQEPSLTVSPGGTVTLTCASSTGAVTPSNYANWVQQKPGQAPRGLIGDNNIKPPWTPARFSGSLLGGKAALTLSGVQPEDEAEYYCALWYGGQWVFGGGTKLTVL	9.61

-- ask Read the entry CA10_parental (antibody, V domains shown) VH: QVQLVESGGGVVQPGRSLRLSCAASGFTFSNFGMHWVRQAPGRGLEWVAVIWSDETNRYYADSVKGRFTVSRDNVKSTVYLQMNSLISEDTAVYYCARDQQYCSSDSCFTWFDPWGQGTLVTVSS VL: QVVVTQESALTTSPGETVTLTCRSSTGTVTPSNYANWVQEKPDHFFTGLIGDNNSRPPGVPARFSASLIGDKAALTITGAQTEDEAMYFCALWFGNQWVFGGGTKVTVL and write its reported pKd.
-- reply 9.41

-- ask Read the entry CA10 Variant 6 (antibody, V domains shown) VH: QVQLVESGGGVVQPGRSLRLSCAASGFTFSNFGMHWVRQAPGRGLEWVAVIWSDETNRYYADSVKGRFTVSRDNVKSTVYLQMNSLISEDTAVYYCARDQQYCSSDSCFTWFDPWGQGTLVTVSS VL: QTVVTQEPSLTVSPGGTVTLTCASSTGTVTPSNYANWVQQKPGQFPRGLIGDNNSRPPGTPARFSASLLGGKAALTLSGVQPEDEAEYYCALWFGNQWVFGGGTKLTVL and write its reported pKd.
-- reply 10.40

-- ask Read the entry CA10 Variant 1 (antibody, V domains shown) VH: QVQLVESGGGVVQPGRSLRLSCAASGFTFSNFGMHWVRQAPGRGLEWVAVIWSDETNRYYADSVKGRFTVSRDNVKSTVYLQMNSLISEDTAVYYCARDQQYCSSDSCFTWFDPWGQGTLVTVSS VL: QTVVTQEPSLTVSPGGTVTLTCRSSTGTVTPSNYANWVQQKPDHFFTGLIGDNNSRPPGVPARFSASLIGDKAALTLSGVQPEDEAEYYCALWFGNQWVFGGGTKLTVL and write its reported pKd.
-- reply 9.61
